Listed here are sequences together with their documented PBM binding z-score.
- Tested on: PXR homodimer (NR concentration 270 nM)
- ASSAY METHOD TEXT: PBM binding z-score (relative to random genomic background probes); higher = stronger binding; sequences stand for … in GC…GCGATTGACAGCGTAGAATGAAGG

Suppose we examine the sequence `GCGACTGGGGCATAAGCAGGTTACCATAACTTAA` ; what PBM binding z-score value has been reported?
-0.431

Tell me the measured PBM binding z-score of `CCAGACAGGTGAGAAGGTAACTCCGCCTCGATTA` , please.
-0.154

Tell me the measured PBM binding z-score of `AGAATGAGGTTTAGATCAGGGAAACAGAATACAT` , please.
-0.0808

Name the recorded PBM binding z-score for `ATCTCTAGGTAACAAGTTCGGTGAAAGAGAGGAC` .
0.713

Please look up its PBM binding z-score: `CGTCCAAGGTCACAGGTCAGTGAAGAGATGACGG`
0.786

Please give the measured PBM binding z-score for this sequence: `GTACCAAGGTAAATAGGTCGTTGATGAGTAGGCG`
0.0446

// lookup PBM binding z-score for `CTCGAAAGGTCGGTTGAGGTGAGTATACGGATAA`
-0.354

Look up PBM binding z-score for this sequence: `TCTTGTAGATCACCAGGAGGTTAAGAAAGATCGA`
-0.00438

Item `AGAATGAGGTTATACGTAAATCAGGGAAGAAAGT` has what recorded PBM binding z-score?
0.834

Consider the sequence shown here: `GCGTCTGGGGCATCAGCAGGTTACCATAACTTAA` What is its recorded PBM binding z-score?
-0.377

What measured PBM binding z-score goes with `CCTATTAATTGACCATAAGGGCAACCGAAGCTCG` ?
1.92

What value of PBM binding z-score has been recorded for this entry: `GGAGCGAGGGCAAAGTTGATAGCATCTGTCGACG`
-0.0464

Please report the recorded PBM binding z-score for `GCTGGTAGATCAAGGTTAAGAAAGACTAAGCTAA` .
-0.246

Would you kindly share the measured PBM binding z-score for `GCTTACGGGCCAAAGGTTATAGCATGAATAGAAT` ?
0.0168

Name the reported PBM binding z-score value associated with the sequence `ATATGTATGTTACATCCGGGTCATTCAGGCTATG`
1.37
